- experimentalTarget: Ssa1-WT (yeast, UniProt P10591 1-642)
- Sequence (P10591 whole entry): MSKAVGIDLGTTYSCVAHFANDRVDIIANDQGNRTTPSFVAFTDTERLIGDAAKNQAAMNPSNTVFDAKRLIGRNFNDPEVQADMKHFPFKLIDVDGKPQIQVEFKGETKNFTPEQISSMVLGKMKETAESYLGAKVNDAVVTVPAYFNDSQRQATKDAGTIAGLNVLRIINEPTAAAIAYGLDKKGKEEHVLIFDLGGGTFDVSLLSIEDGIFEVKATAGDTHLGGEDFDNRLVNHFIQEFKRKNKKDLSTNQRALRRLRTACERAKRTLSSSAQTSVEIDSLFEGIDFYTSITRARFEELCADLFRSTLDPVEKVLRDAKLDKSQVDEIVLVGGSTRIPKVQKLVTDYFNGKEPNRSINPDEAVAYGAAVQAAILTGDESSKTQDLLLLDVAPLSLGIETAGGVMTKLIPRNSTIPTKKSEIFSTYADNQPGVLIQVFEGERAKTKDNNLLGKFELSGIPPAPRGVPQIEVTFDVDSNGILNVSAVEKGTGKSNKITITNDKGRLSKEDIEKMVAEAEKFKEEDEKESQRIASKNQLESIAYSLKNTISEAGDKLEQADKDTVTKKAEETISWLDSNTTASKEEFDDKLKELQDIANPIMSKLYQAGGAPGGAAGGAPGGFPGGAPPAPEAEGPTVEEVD
- procedureText: ELISA
resultType: binding result

binder: Sis1-[change] (natural protein) MVKETKLYDLLGVSPSANEQELKKGYRKAALKYHPDKPTGDTEKFKEISEAFEILLDPQKREIYDQYGLEAARSGGPSFGPGGPGGAGGAGGFPGGAGGFSGGHAFSNEDAFNIFSQFFGGSSPFGGADDSGFSFSSYPSGGGAGMGGMPGGMGGMHGGMGGMPGGFRSASSSPTYPEEETVQVNLPVSLEDLFVGKKKSFKIGRKGPHGASEKTQIDIQLKPGWKAGTKITYKNQGDYNPQTGRRKTLQFVIQEKSHPNFKRDGDDLIYTLPLSFKESLLGFSKTIQTIDGRTLPLSRVQPVQPSQTSTYPGQGMPTPKNPSQRGNLIVKYKVDYPISLNDAQKRAIDENF
value: binds

binder: Sis1-[change] (natural protein) MVKETKLYDLLGVSPSANEQELKKGYRKAALKYHPDKPTGDTEKFKEISEAFAILNDPQKREIYDQYGLEAARSGGPSFGPGGPGGAGGAGGFPGGAGGFSGGHAFSNEDAFNIFSQFFGGSSPFGGADDSGFSFSSYPSGGGAGMGGMPGGMGGMHGGMGGMPGGFRSASSSPTYPEEETVQVNLPVSLEDLFVGKKKSFKIGRKGPHGASEKTQIDIQLKPGWKAGTKITYKNQGDYNPQTGRRKTLQFVIQEKSHPNFKRDGDDLIYTLPLSFKESLLGFSKTIQTIDGRTLPLSRVQPVQPSQTSTYPGQGMPTPKNPSQRGNLIVKYKVDYPISLNDAQKRAIDENF
value: binds
